- Target entity: recombinant STAT3 (Homo sapiens, UniProt P40763)
- Sequence (P40763 whole entry, species assumed): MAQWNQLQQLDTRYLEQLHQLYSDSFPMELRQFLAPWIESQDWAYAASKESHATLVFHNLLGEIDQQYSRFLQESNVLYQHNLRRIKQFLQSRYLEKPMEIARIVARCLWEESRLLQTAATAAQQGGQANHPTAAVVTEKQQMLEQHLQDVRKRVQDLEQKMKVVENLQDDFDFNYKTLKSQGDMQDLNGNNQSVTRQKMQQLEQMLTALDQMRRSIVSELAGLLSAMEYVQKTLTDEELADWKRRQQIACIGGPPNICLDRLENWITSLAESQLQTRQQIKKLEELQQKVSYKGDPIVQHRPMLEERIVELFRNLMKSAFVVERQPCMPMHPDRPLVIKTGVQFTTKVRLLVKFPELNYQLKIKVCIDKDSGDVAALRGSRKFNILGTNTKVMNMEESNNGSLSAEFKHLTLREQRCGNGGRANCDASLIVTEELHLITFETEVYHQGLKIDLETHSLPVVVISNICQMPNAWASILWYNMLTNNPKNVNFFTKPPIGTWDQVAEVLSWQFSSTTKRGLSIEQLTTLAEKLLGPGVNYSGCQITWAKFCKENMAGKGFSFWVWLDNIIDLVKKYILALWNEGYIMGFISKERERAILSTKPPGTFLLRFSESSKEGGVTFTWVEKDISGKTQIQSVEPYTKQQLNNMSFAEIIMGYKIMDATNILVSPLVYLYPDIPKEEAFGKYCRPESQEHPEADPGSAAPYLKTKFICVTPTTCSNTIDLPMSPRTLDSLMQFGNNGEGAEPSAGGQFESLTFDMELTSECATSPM
- Measurement protocol: SPR binding assay (BIAcore) with STAT3
- Settings: recombinant STAT3, 0.078-10.0 μM, read-out: KD (equilibrium dissociation constant) with STAT3
Measured property: Kd (nM)
Express it in nM; write the number only.

Value (Kd, recombinant STAT3 (Homo sapiens, UniProt P40763)) for record CCCNC(=O)C(Cc1ccccc1)NC1=C/C(=N/O)c2ccccc2C1=O (stereo not shown) = 170

----------
- Test system: SKOV3
- Measurement protocol: MTT cytotoxicity assay, SKOV3
- Type: cell-based
- Settings: Homo sapiens, SK-OV-3, mean ± SD
Measured property: IC50 (µM)
Express it in µM; write the number only.

See these solved cases before continuing.
Compound	IC50 / µM
COc1cccc2c1C(=O)c1c(O)c3c(c(O)c1C2=O)C[C@@](O)(C(=O)CO)C[C@@H]3O[C@H]1C[C@H](N)[C@H](O)[C@H](C)O1 [DOX, doxorubicin, reference compound]	0.58
O=C1C(NC(Cc2ccccc2)C(=O)NCCc2ccccc2)=C/C(=N/O)c2ccccc21 (centres unmarked)	4.25
CCCCC(CC)CNC(=O)C(Cc1ccccc1)NC1=C/C(=N/O)c2ccccc2C1=O (centres unmarked)	0.95

Input CCCNC(=O)C(Cc1ccccc1)NC1=C/C(=N/O)c2ccccc2C1=O (centres unmarked) . Output IC50: 0.48
